# credit: patent US20210380703A1

- tgt: T1, Goat anti-Human Kappa
- T1 construct: Positive control; also called biotinylated goat anti-human kappa light chain
- assay procedure: ELISA; positive control; note: test concentration or dose not given here
- Procedure: The binding of ACVR2A-specific monoclonal antibodies to human ACVR2A, mouse ACVR2A, biotinylated goat anti-human kappa light chain (positive control) and human Fc (negative control) were determined by ELISA.
In this section we review reported optical density values for a set of binders.
endpoint: optical density

binder	observed result
369_D08 (antibody, V domains shown, VH/VL only) VH: EVQLLESGGGLVQPGGSLRLSCAASGFTFSDYSMNWVRQAPGKGLEWVASINYNGGYKGYADSVKGRFTISRDNSKNTLYLQMNSLRAEDTAVYYCARGATWHDTHLDYWGQGTLVTVSS VL: DIQMTQSPSSLSASVGDRVTITCRASQSILTYLNWYQQKPGKAPKLLIYAATSRASGVPSRFSGSGSGTDFTLTISSLQPEDFATYYCQQSYDTPLTFGGGTKVEIK	3.06 OD
368_C11 (antibody, V domains shown, VH/VL only) VH: EVQLLESGGGLVQPGGSLRLSCAASGFTFSDYSMNWVRQAPGKGLEWVSSINYNSGYKSYADSVKGRFTISRDNSKNTLYLQMNSLRAEDTAVYYCARGATWHDTHLDYWGQGTLVTVSS VL: DIQMTQSPSSLSASVGDRVTITCRASQSIISYLNWYQQKPGKAPKLLIYAATSRASGVPSRFSGSGSGTDFTLTISSLQPEDFATYYCQQSYDNPLTFGGGTKVEIK	3.56 OD
366_E10 (antibody, V domains shown, VH/VL only) VH: EVQLLESGGGLVQPGGSLRLSCAASGFTFDSYGMNWVRQAPGKGLEWVSGINYNGGYKGYADSVKGRFTISRDNSKNTLYLQMNSLRAEDTAVYYCARSANWHDTHLDYWGQGTLVTVSS VL: DIQMTQSPSSLSASVGDRVTITCRASQSILSYVNWYQQKPGKAPKLVIYAATSRHSGVPSRFSGSGSGTDFTLTISSLQPEDFATYYCQQSYSLPLTFGGGTKVEIK	3.45 OD
